# systemTested: Voltage-dependent N-type calcium channel subunit alpha-1B (Homo sapiens, UniProt Q00975)
# Sequence (Q00975 whole entry): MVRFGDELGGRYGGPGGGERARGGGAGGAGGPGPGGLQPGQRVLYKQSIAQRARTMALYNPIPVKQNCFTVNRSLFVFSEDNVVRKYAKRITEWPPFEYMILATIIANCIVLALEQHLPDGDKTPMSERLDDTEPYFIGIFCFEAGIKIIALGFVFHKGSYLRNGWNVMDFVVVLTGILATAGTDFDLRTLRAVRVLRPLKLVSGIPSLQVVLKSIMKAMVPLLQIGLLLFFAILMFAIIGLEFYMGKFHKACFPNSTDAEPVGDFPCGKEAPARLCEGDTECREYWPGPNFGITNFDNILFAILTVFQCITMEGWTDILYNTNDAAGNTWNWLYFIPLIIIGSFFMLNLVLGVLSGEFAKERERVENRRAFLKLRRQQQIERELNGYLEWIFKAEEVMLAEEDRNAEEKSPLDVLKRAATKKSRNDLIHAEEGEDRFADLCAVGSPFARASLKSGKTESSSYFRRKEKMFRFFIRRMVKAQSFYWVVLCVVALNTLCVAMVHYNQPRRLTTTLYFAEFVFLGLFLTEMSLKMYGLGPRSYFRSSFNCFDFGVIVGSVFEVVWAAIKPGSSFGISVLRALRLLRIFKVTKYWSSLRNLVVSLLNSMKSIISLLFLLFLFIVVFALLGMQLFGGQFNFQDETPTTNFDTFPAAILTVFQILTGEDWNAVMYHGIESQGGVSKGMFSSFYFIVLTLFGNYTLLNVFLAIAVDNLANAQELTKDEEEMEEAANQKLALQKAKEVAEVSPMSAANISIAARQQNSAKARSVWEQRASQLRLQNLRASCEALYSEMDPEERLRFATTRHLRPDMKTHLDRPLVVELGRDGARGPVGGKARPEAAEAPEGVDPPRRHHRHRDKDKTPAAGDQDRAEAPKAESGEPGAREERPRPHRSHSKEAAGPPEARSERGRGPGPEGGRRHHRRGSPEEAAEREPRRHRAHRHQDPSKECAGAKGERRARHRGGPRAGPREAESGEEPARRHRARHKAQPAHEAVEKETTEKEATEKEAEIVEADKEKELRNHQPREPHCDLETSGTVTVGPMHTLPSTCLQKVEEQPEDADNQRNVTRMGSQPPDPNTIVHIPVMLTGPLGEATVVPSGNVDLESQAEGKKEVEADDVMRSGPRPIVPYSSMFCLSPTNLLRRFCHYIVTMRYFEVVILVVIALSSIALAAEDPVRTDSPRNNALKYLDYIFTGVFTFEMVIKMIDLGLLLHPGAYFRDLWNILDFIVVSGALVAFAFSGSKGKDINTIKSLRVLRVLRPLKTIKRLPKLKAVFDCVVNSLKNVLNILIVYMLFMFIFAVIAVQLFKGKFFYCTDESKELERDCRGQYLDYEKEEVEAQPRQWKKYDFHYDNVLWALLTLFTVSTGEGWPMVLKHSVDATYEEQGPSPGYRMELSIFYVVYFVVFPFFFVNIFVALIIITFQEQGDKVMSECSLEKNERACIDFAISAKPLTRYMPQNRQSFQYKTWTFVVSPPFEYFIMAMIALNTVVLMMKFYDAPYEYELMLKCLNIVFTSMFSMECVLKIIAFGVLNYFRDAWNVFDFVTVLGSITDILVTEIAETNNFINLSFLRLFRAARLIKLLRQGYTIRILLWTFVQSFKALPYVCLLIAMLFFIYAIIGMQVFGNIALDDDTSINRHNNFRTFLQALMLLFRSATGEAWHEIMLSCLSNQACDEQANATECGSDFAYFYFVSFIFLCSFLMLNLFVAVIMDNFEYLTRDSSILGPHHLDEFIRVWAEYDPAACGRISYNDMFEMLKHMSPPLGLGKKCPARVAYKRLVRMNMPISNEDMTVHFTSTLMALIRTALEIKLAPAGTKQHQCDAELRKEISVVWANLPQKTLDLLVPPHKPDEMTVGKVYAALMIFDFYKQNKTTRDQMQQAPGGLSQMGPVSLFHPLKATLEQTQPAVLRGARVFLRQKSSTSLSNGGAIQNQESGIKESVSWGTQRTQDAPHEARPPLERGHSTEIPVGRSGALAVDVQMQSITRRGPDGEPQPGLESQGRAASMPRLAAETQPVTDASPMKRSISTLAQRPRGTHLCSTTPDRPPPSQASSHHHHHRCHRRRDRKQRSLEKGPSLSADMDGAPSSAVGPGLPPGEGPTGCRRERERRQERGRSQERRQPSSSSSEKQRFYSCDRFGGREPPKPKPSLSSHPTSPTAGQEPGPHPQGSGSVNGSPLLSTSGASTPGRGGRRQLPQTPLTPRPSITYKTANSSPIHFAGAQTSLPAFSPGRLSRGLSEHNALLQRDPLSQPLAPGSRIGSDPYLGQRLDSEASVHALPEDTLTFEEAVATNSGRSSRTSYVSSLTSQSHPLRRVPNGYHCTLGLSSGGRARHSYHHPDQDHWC
# protocolDetails: Inhibition of N-type voltage-dependent calcium channel CaV2.2 in human IMR32 cells assessed as inhibition of KCl-induced increase in intracellular calcium concentration preincubated for 4 to 5 mins before KCl challenge
endpointName: pIC50
// scale note: pIC50 = -log10(conc_M); give the bare number

COC(OC)C1=C(C(=O)OC/C=C/c2ccccc2)C(c2cccc(Cl)c2)C(C(=O)O)=CN1 (stereo unspecified); 5.96
O=C(O)C1=CNC=C(C(=O)OC/C=C/c2ccccc2)C1c1ccc(Cl)c(Cl)c1 (stereo unspecified); 6.12
COc1ccc(C2C(C(=O)O)=CNC(C(OC)OC)=C2C(=O)OC/C=C/c2ccccc2)cc1Cl (stereo unspecified); 5.82
COC(OC)C1=C(C(=O)OC/C=C/c2ccccc2)C(c2ccc(Cl)cc2)C(C(=O)O)=CN1 (stereo unspecified); 5.96
O=C(O)C1=CNC=C(C(=O)OC/C=C/c2ccccc2)C1c1ccc(Cl)cc1 (stereo unspecified); 5.92

(Q) State its pIC50 for this compound: COc1c(Cl)cc(C2C(C(=O)O)=CNC=C2C(=O)OC/C=C/c2ccccc2)cc1Cl (stereo in doubt; (-)-3f)
(A) 6.08

(Q) State its pIC50 for this compound: COc1ccc(C2C(C(=O)O)=CNC=C2C(=O)OC/C=C/c2ccccc2)cc1Cl (stereo unspecified)
(A) 5.89

(Q) State its pIC50 for this compound: O=C(O)C1=CNC=C(C(=O)OC/C=C/c2ccccc2)C1c1cccc(Cl)c1 (stereo unspecified)
(A) 5.80

(Q) State its pIC50 for this compound: COC(OC)C1=C(C(=O)OC/C=C/c2ccccc2)C(c2cc(Cl)cc(Cl)c2)C(C(=O)O)=CN1 (stereo unspecified)
(A) 6.00
